Give TGI for every item shown.
# System: SK-MEL-28 melanoma
# TEST DETAILS: NCI tumour cell line growth inhibition, 48 h

Req: # get_value(readout='TGI', item= O=c1[nH]c(N/N=C\C(=N/Nc2nc3ccccc3c(=O)[nH]2)C(O)C(O)C(O)CO)nc2ccccc12 (stereo not given) )
Resp: > 100 µM

Req: For COc1ccc(C2ON(c3ccccc3)CC=C2C)cc1 (stereo not given) then?
Resp: > 100 µM

Req: Try this compound too: CC(=O)OCC1OC(N2C(c3ccccc3)=CC(c3ccco3)C(C#N)=C2S)C(OC(C)=O)C(OC(C)=O)C1OC(C)=O (stereo not given)
Resp: > 75.5 µM

Req: Now consider Cc1ccc(OCC2OC(n3cnc4nc(Nc5ccc(Cl)c(Cl)c5)nc(Cl)c43)CC2Oc2ccc(C)cc2)cc1 (stereo not given) and answer again.
Resp: > 100 µM

Req: Now consider COc1cccc(/C=C/C(=O)c2sc(C(N)=S)nc2C)c1O and answer again.
Resp: > 100 µM

====

# Tested on: SK-MEL-28 melanoma
# TEST DETAILS: NCI tumour cell line growth inhibition, 48 h
Where a SMILES comes first, the peptide text is derived from it. [ ]: non-standard residue; d: D form. The star is where a group is joined. ξ: configuration not given here. ξF = NC(Cc1ccccc1)C(=O)O; Cbz = O=C(OCc1ccccc1)*; Aib = CC(C)(N)C(=O)O
We use 9 µM as the dividing line for TGI: on or above the line is true (1), below is false (0).

Req: Identify whether the reported TGI of the following molecule is 9 µM or greater: CCOC(=O)C1=C(C)NC(=O)NC1CN1C(=O)c2ccccc2C1=O (stereo unspecified)
Resp: true (1)

Req: Then what about the molecule CC(=O)CC/C=C(\C)[C@H](O)[C@H](C)C(=O)O[C@H]1C[C@H](C)C=C2C=C[C@@]3(C)O[C@@H](O)CC(=O)[C@]3(C)[C@H]21 ?
Resp: false (0)

Req: Could you do the same for COc1ccccc1CC(C)N (stereo unspecified) , please?
Resp: true (1)

Req: Also COc1cc2oc(-c3ccccc3)cc(=O)c2c(O)c1C ?
Resp: true (1)

Req: Item: COc1cc(C2OC(N)=C(C#N)C3=C2C(C)CCC3)cc(OC)c1OC (stereo unspecified)
Resp: true (1)

Req: What about this molecule? COc1cc(-c2nc3sc(C)cn3c2/C=C2\C(=O)Nc3ccccc32)c(Br)c(OC)c1OC
Resp: true (1)

Req: Another molecule to check: O=C(Cc1ccccc1)NN1C(=O)/C(=C\c2cccc([N+](=O)[O-])c2)SC1=Nc1ccccc1
Resp: true (1)

Req: Then CN(C)CCC(CCN(C)C)=NO ?
Resp: true (1)

Req: Now try CCOC(=O)c1ccc(C(=O)n2ccnc2)[nH]1 .
Resp: true (1)

Req: How about this molecule: COc1ccc(C(=NN=C(N)N)c2ccc(OC)cc2)cc1
Resp: true (1)

Req: Another molecule: CCC1C(C(=O)Nc2ccccc2C)=C(C)NC(C)=C1c1ccccc1C (stereo unspecified)
Resp: true (1)

Req: Further, for CC(C)(C)c1cc(/C=N/NC(=O)c2ccccc2NC(=O)c2cccs2)c(O)c(C(C)(C)C)c1 ?
Resp: true (1)

Req: Thanks! And CC(=O)Nc1ccc(-c2nnc(SCC(=O)Nc3cccc(Cl)c3)o2)cc1 ?
Resp: true (1)

Req: For CC(C)(C)C(=O)Nc1cccc2oc(-c3ccccc3)cc12 then?
Resp: true (1)

Req: Same lookup for CC(C)(C)OC(=O)N1C(OP(=O)(Oc2ccccc2)Oc2ccccc2)=CSc2ccccc21 , please.
Resp: true (1)

Req: And CC(=O)O[C@H]1CC[C@H]2[C@@H]3CCC4=CC(=O)C=C[C@]4(O)[C@H]3CC[C@]12C ?
Resp: true (1)

Req: Next record, please: COc1cc(/C=C2\N=C(c3ccccc3)N(c3ccc(C(=O)c4ccccc4)cc3N3C(=O)/C(=C/c4ccc(O)c(OC)c4)N=C3c3ccccc3)C2=O)ccc1O
Resp: true (1)

Req: And then CCN1c2cc(Br)cc3[nH]c(=O)n(c23)CCC1C (stereo unspecified) , what is it?
Resp: true (1)

Req: Field entry: C[C@@H](NS(=O)(=O)c1ccc(NC(=O)c2ccccc2)cc1)C(=O)O
Resp: true (1)

Req: Would you mind doing Cc1ccc(C=C2C(Cl)=C(Cl)C(Cl)=C2Cl)cc1 as well?
Resp: false (0)

Req: Also check Clc1cc(Cl)c(OCCCCCCN2CCNCC2)c(Cl)c1
Resp: false (0)

Req: Then this molecule: CCCCN1C(=O)c2c(Br)sc(Br)c2C1=O
Resp: true (1)

Req: And for CN(C)CC(=O)Nc1ccc2ncnc(Nc3ccc(Oc4cccc(C(F)(F)F)c4)c(Cl)c3)c2c1 ?
Resp: false (0)

Req: Would you kindly repeat that for Cn1cc(-c2nc(-c3c[nH]c4ncccc34)cs2)c2ccccc21 ?
Resp: true (1)

Req: Item: Cc1ccc(S(=O)(=O)N2CCN(C=S)CC2)cc1
Resp: true (1)

Req: // next record Cc1cc(=O)oc2c(CNC(CO)C(=O)O)c(O)ccc12 (stereo unspecified)
Resp: true (1)

Req: For CCC/C(Cl)=N/OC(=O)Nc1cc(C(F)(F)F)ccc1OC then?
Resp: true (1)

Req: # repeat for CC1(C)N=C(N)N=C(N)N1c1ccc(OCCCNC(=O)Nc2cccc(S(=O)(=O)F)c2)c(Cl)c1
Resp: true (1)

Req: Request: CC1(C)C2CCC1(C)C(OC(=O)/C=C/C(=O)OC1CC3CCC1(C)C3(C)C)C2 (stereo unspecified)
Resp: true (1)

Req: Can you check CC(C)(C)CC(C)(C)c1ccc(O)c(Cc2ccc(Cl)cc2Cl)c1 next?
Resp: false (0)

Req: Record: O=C1C(=C([O-])c2ccccc2)C(=O)c2ccccc21.O=C1C(=C([O-])c2ccccc2)C(=O)c2ccccc21.[Mn+2]
Resp: true (1)

Req: What would you report for CN(C)Cc1cc(C(=O)/C=C/c2ccc(Cl)c(Cl)c2)cc(CN(C)C)c1O ?
Resp: true (1)

Req: Proceed to Cc1cc(N2CCCCC2)nc(NC2CCCC(Nc3ccnc4cc(Cl)ccc34)C2)n1 (stereo unspecified)
Resp: false (0)

Req: Also Cn1c2c(c3ccccc31)CCN(CCCCN1CCN(c3ccccc3)CC1)C2=O ?
Resp: true (1)

Req: Check C#Cc1cccc(Nc2ncnc3ccc(OCCCCNCCS(C)(=O)=O)cc23)c1 too.
Resp: false (0)

Req: Ok, now COc1cc(/C=C/c2cc(/C=C/c3ccc(O)c(OC)c3)n(C(=O)Nc3ccccc3Cl)n2)ccc1O
Resp: false (0)

Req: Okay, and c1ccncc1 ?
Resp: true (1)

Req: # iterate: O=C1OC(C2Cc3ccc4c(c3C2=O)CCC4)c2ccccc21 (stereo unspecified)
Resp: true (1)

Req: # repeat for COc1c(/C=C/C=O)cc2c(c1OC)OCO2
Resp: true (1)

Req: Can you check CCOC(=O)CNC(=O)C(Cc1ccccc1)NC(=O)C(C)(C)NC(=O)OCc1ccccc1 (stereo unspecified) (Cbz-[Aib]-[ξF]-Gly-OEt) next?
Resp: true (1)

Req: Now try CC(=O)OCC1OC(c2c(OC(C)=O)cc(C)c3c(=O)cc(/C(C(C)=O)=C(\C)O)oc23)C(OC(C)=O)C(OC(C)=O)C1OC(C)=O (stereo unspecified) .
Resp: true (1)
